Entries and their IC50
- Target: T1, integrin αvβ5 (human, UniProt P06756)
- T1 chain 1: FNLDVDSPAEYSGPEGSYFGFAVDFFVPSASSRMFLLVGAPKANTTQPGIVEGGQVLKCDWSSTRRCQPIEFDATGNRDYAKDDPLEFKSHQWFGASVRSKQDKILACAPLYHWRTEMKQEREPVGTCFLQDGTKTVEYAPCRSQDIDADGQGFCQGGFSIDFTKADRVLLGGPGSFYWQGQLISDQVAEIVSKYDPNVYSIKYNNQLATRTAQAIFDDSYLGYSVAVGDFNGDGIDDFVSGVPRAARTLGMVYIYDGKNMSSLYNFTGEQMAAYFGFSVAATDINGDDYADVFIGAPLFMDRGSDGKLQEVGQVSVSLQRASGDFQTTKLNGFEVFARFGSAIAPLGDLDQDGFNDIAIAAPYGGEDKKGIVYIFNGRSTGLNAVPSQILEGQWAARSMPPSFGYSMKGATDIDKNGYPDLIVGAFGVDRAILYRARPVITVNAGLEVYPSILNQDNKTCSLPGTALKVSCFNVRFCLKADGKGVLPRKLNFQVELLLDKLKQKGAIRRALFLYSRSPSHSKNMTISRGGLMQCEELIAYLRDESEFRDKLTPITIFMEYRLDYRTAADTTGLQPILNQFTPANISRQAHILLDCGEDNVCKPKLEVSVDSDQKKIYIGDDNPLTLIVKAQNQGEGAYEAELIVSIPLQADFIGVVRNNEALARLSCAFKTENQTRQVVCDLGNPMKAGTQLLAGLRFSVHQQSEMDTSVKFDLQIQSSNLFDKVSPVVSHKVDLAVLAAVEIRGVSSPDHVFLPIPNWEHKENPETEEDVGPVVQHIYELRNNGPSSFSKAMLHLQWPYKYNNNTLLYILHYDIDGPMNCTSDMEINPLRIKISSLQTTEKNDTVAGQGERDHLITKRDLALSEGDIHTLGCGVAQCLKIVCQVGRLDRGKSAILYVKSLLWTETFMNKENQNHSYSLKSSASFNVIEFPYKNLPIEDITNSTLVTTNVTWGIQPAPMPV
- T1 chain 2: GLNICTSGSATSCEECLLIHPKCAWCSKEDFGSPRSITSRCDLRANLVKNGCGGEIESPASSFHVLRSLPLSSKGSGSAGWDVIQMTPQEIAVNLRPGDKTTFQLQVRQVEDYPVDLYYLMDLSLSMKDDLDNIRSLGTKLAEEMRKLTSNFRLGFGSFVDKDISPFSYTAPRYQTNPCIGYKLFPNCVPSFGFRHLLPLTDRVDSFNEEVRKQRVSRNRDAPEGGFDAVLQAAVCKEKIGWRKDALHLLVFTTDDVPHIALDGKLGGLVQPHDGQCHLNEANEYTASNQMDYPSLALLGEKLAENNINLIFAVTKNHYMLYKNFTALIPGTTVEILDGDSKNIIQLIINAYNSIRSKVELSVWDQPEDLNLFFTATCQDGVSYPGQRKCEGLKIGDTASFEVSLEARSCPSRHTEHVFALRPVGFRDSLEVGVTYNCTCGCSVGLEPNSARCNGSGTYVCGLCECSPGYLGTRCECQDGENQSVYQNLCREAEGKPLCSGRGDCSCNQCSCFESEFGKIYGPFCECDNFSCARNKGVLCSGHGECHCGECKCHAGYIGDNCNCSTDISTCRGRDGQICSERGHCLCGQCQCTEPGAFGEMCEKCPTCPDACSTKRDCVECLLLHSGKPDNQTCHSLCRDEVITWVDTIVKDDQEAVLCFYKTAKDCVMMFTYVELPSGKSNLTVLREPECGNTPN
- Test Method Notes: competition
[ ]: non-standard residue; d: D form. NMeK = CN[C@@H](CCCCN)C(=O)O
Metric Name: IC50

* cyclo(RGDL[dP][NMeK]GL) (SMILES CC(C)C[C@@H]1NC(=O)CNC(=O)[C@H](CCCCN)N(C)C(=O)[C@H]2CCCN2C(=O)[C@H](CC(C)C)NC(=O)[C@H](CC(=O)O)NC(=O)CNC(=O)[C@H](CCCNC(=N)N)NC1=O) [Compound 8] | > 1 µM
* cyclo(RGDL[dP]PGL) [Compound 2] | > 1 µM
* cyclo(RGDL[dP][NMeK](Ac)GL) [Compound 9] | > 1 µM
